- SUBJECT_OF_TEST: human MMP-13 catalytic domain (hMMP-13CD) (Homo sapiens)
REPORTED_PROPERTY: IC50

Value of IC50 reported for the compound O=C(O)c1ccc(Cn2ccc3ccc(C#CCn4ccnn4)cc3c2=O)cc1 is > 50 µM
